# Tested On: recombinant human Meningioma Expressed Antigen 5 (MGEA5), also referred to as O-GlcNAcase (OGA) (Homo sapiens)
# Construct: Full length OGA enzyme was purchased at OriGene (cat #TP322411); purchased OriGene TP322411
# Sequence (O60502 whole entry): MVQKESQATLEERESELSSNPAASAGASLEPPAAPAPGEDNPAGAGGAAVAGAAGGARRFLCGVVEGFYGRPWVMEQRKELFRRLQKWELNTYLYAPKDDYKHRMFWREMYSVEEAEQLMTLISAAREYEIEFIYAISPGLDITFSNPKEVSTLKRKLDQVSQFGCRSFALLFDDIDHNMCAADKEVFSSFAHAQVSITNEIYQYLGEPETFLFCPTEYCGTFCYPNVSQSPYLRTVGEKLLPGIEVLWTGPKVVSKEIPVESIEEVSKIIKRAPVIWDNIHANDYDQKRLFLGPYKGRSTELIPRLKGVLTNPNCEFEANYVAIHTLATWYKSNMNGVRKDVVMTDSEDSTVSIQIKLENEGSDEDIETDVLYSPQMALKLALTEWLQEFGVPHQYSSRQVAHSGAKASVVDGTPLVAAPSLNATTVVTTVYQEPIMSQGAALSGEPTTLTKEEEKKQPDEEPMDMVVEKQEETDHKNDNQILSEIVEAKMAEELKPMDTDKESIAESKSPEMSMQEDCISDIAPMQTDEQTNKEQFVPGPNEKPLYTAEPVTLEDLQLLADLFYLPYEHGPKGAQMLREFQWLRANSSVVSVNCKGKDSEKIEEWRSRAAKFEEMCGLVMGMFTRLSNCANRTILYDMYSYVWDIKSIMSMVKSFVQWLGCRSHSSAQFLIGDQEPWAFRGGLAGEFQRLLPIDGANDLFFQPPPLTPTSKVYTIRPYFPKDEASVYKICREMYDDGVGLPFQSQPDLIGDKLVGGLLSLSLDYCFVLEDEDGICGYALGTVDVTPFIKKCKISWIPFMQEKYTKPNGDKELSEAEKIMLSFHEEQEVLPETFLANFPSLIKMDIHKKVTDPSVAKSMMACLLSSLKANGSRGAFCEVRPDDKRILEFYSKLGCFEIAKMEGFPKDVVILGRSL
# Experimental Details: OGA biochemical assay (inhibition of FM-GlcNAc hydrolysis, fluorescence)
# Condition Label: read-out: Enzymatic Emax (%)
Measurement Type: Emax (%)

molecule="CC(c1ccc2c(n1)OCCO2)N1CCC(Oc2ccc(C(F)(F)F)cn2)CC1 (centres unmarked)" measurement_type=Emax measured_value=101
molecule="Cc1cnc(OC2CCN(C(C)c3nc4c(cc3F)OCCO4)CC2)c(C)n1 (centres unmarked)" measurement_type=Emax measured_value=101
molecule="Cc1cc(OC2CCN(C(C)c3nc4c(cc3F)CCO4)CC2)c(Cl)c(C)n1 (centres unmarked)" measurement_type=Emax measured_value=101
molecule="CC(c1ccc2c(n1)OCCO2)N1CCC(C)(Oc2ccc(F)cc2)CC1 (centres unmarked)" measurement_type=Emax measured_value=70
molecule="Cc1ccc(OC2CCN(C(C)c3ccc4c(n3)OCCO4)CC2)cn1 (centres unmarked)" measurement_type=Emax measured_value=99
